target: T1, his-tagged ROR2 extracellular domain (ROR2-ECD, G&P Biosciences, cat. no. FCL0192) (human, UniProt Q01974 34-403); experiment: BLI (Octet), antibody on anti-human IgG Fc sensor, ROR2-ECD 1.56-100 nM as analyte
T1 construct: Bought protein; also called human ROR2-ECD; recombinant human ROR2-ECD; not shown: his tag
T1 sequence (Q01974 34-403): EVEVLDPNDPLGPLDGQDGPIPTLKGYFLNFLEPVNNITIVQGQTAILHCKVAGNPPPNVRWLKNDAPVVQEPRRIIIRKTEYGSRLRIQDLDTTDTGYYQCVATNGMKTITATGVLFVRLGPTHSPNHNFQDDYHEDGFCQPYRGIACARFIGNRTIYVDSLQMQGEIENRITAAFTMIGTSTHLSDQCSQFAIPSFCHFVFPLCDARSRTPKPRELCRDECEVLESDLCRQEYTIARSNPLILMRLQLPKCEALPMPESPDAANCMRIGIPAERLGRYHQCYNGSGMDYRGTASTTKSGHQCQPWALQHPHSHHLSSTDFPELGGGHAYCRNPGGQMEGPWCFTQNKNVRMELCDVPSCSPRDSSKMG
Each entry below lists one item and its recorded kon value.
# number only, unit M⁻¹ s⁻¹ dropped from output

Below, 4 binders whose answers are already recorded.
- BINDER: "IgG1-ROR2-A-HC1LC2-FEAR (antibody, V domains shown, Humanized variant) VH: QSVLESGGGLVQPGGSLRLSCTVSGFSLSSYSMSWVRQAPGKGLEWIGVIYVNSKTWYANWAKGRFTISKTSTTVDLKITSPTAEDTATYFCARGDAGYTTNSWLWGQGTLVTVSS VL: AFELTQSPSSLSASVGDRVTITCQASESIDNYLSWYQQKPGKAPKLLIYQAFKLASGVPSRFRGSGSGTDFTLTISSLQSEDFATYYCQSYSGISTTAFGGGTEVVIK"
  VALUE_TYPE: "kon"
  TEST_RESULT: 590000
- BINDER: "IgG1-ROR2-A-HC6LC1-FEAR (antibody, V domains shown, Humanized variant) VH: EVQLLESGGGLVQPGGSLRLSCTVSGFSLSSYSMSWVRQAPGKGLEWIGVIYVNSKTWYADSVKGRFTISKDNSKNTVYLQMNSLRAEDTATYYCARGDAGYTTNSWLWGQGTLVTVSS VL: AFELTQSPSSLSASVGDRVTITCQASESIDNYCSWYQQKPGKAPKLLIYQAFKLASGVPSRFRGSGSGTDFTLTISSLQSEDFATYYCQSYSGISTTAFGGGTEVVIK"
  VALUE_TYPE: "kon"
  TEST_RESULT: 560000
- BINDER: "IgG1-ROR2-A-HC7LC2-FEAR (antibody, V domains shown, Humanized variant) VH: EVQLLESGGGLVQPGGSLRLSCAASGFSLSSYSMSWVRQAPGKGLEWIGVIYVNSKTWYADSVKGRFTISKDNSKNTVYLQMNSLRAEDTATYYCARGDAGYTTNSWLWGQGTLVTVSS VL: AFELTQSPSSLSASVGDRVTITCQASESIDNYLSWYQQKPGKAPKLLIYQAFKLASGVPSRFRGSGSGTDFTLTISSLQSEDFATYYCQSYSGISTTAFGGGTEVVIK"
  VALUE_TYPE: "kon"
  TEST_RESULT: 540000
- BINDER: "IgG1-ROR2-A-HC3LC1-FEAR (antibody, V domains shown, Humanized variant) VH: EVQLLESGGGLVQPGGSLRLSCTVSGFSLSSYSMSWVRQAPGKGLEWIGVIYVNSKTWYANWAKGRFTISKTSTTVYLQMNSLRAEDTATYYCARGDAGYTTNSWLWGQGTLVTVSS VL: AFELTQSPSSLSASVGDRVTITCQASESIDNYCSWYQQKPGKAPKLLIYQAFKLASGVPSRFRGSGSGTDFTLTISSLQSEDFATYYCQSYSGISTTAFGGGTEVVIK"
  VALUE_TYPE: "kon"
  TEST_RESULT: 550000

# input for lookup
Exercise: What value of kon has been reported for the following binder? IgG1-ROR2-A-HC6LC2-FEAR (antibody, V domains shown, Humanized variant) VH: EVQLLESGGGLVQPGGSLRLSCTVSGFSLSSYSMSWVRQAPGKGLEWIGVIYVNSKTWYADSVKGRFTISKDNSKNTVYLQMNSLRAEDTATYYCARGDAGYTTNSWLWGQGTLVTVSS VL: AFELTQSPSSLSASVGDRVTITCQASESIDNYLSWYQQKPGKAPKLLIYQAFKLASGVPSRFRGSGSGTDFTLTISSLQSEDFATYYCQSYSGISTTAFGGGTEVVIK
Key: 560000

Hello, the source for this data is patent US20230365714A1, in case you need it.
